biological target: Bifunctional dihydrofolate reductase-thymidylate synthase (Plasmodium falciparum K1) (UniProt P13922); assay: Inhibition of mutant C59R+S108N dihydrofolate reductase (DHFR) relative to Pyr
Sequence (P13922 whole entry, looked up): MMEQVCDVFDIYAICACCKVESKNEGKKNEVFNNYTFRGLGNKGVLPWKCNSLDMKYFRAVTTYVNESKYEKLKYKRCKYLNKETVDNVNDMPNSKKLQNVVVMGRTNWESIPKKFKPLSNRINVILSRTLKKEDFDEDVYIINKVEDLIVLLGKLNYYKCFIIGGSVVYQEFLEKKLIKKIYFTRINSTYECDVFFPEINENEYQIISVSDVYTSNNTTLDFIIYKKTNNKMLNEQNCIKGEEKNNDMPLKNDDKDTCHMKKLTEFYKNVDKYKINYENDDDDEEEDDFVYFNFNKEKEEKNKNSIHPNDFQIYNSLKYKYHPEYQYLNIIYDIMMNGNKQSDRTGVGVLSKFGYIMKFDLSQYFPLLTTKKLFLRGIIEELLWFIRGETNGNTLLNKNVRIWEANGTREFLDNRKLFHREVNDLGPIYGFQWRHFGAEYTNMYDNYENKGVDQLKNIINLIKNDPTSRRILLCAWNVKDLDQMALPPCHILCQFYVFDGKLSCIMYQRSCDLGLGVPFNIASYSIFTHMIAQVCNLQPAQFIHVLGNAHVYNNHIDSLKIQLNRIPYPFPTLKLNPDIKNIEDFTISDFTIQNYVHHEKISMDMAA
This section presents compounds with their documented Relative activity values.

Below: 5 compounds and their reported Relative activity.
Nc1ncc(-c2ccc(Cl)cc2)c(N)n1 | 10.3
Cc1nc(N)nc(N)c1-c1ccccc1 | 0.7
CCOc1c(Br)cc(-c2c(N)nc(N)nc2CC)cc1Br | 9.9
CCc1nc(N)nc(N)c1-c1ccc(Cl)c(Cl)c1 [ETOPRINE] | 0.2
Nc1ncc(-c2ccccc2)c(N)n1 | 1.4

Input: # Relative activity lookup, item `CCc1nc(N)nc(N)c1-c1ccc(Cl)cc1Cl`
Output: 21.2

Input: # Relative activity lookup, item `CCc1nc(N)nc(N)c1-c1cccc(Cl)c1`
Output: 0.03

Input: # Relative activity lookup, item `Nc1nc(N)c(-c2ccc(Cl)cc2)c(CCCc2ccccc2)n1`
Output: 0.4

* * *

target: Bifunctional dihydrofolate reductase-thymidylate synthase (Plasmodium falciparum K1, UniProt P13922); assay: Inhibition of the C59R+S108N mutant of dihydrofolate reductase (DHFR)
Sequence (P13922 whole entry): as the sequence (P13922 whole entry, looked up) above
VALUE_KIND: pKi
# log scale: pKi equals minus log10 of the concentration in mol/L

Below: 3 molecules and their reported pKi.
CCc1nc(N)nc(N)c1-c1ccccc1 | 8.06
CCc1nc(N)nc(N)c1-c1ccc(Cl)c(Cl)c1 [ETOPRINE] | 7.90
COc1cc(Cc2cnc(N)nc2N)ccc1OCc1cc(OC)c(OC)c(OC)c1 | 8.06

Consider now this further molecule.
Input: # pKi lookup, item `CCc1nc(N)nc(N)c1-c1ccc(C)cc1`
Output: 7.83

* * *

tested on: Plasmodium falciparum; assay: In vitro antiplasmodial activity (IC50) against Plasmodium falciparum wtTM4/8.2; type: functional, organism-based
VALUE_KIND: pIC50
# log scale: pIC50 equals minus log10 of the concentration in mol/L

Below: 2 compounds and their reported pIC50.
Nc1nc(N)c(-c2cccc(Cl)c2)c(CCCc2ccccc2)n1 | 6.15
COC(=O)CCCc1nc(N)nc(N)c1-c1cccc(Cl)c1 | 6.10

Consider now this further compound.
Input: Quick check: pIC50 on Plasmodium falciparum, item `COc1cc(COc2ccc(Cc3cnc(N)nc3N)cc2)cc(OC)c1OC` ?
Output: 6.15

* * *

test system: Plasmodium falciparum; test: In vitro antiplasmodial activity (IC50) against Plasmodium falciparum wtTM4/8.2; assay type: functional, organism-based
VALUE_KIND: pIC50
# log scale: pIC50 equals minus log10 of the concentration in mol/L

Below: 3 compounds and their reported pIC50.
COC(=O)CCCc1nc(N)nc(N)c1-c1ccccc1 | 6.40
Nc1nc(N)c(-c2ccccc2)c(CCCc2ccccc2)n1 | 6.70
COC(=O)CCCc1nc(N)nc(N)c1-c1ccc(Cl)cc1 | 7.40

Consider now this further compound.
Input: # pIC50 lookup, item `CCc1nc(N)nc(N)c1-c1ccccc1`
Output: 6.15

Provenance of the data: ChEMBL document CHEMBL1135602
